Origin of values: patent US12668594B2

# TARGET SYSTEM: TYK2-JH1 (Homo sapiens)
# Construct: recombinant purified His or GST-tagged catalytic domain for each enzyme
# METHOD SUMMARY: HTRF-based selectivity assay, TYK2 catalytic domain
# MEASUREMENT CONDITIONS: kinase domain (JH1), ATP 20 μM
pIC50: −log10 of the molar value.
MEASURED QUANTITY: pIC50

[[record]]
smiles_text = "COc1cccc(-n2[nH]c(=O)c3cnc(Nc4cc(C)nc(C)n4)cc32)c1"
target_system = "TYK2-JH1 (Homo sapiens)"
result_value = "4.05 to 4.52"

[[record]]
smiles_text = "COc1cccc(-n2[nH]c(=O)c3cnc(Nc4ccnc(C)n4)cc32)c1"
target_system = "TYK2-JH1 (Homo sapiens)"
result_value = "< 4.05"

[[record]]
smiles_text = "Cc1cc(Nc2cc3c(cn2)c(=O)[nH]n3-c2ccc(OC(F)(F)F)cc2)nc(C)n1"
target_system = "TYK2-JH1 (Homo sapiens)"
result_value = "< 4.05"

[[record]]
smiles_text = "Cc1cc(Nc2cc3c(cn2)c(=O)[nH]n3-c2cccc(F)c2)nc(C)n1"
target_system = "TYK2-JH1 (Homo sapiens)"
result_value = "< 4.05"

[[record]]
smiles_text = "O=c1[nH]n(-c2ccccc2)c2cc(Nc3ccc(F)cn3)ncc12"
target_system = "TYK2-JH1 (Homo sapiens)"
result_value = "4.05 to 4.52"


State the recorded pIC50 for this entry: Cc1cc(Nc2cc3c(cn2)c(=O)[nH]n3-c2ccccc2)nc(C)n1
4.52 to 5.00

What about this compound? Cc1cc(Nc2cc3c(cn2)c(=O)[nH]n3-c2ccc(OC(F)F)cc2)nc(C)n1
< 4.05

What about this compound? COc1cccc(-n2[nH]c(=O)c3cnc(Nc4cc(C)nc(C)n4)cc32)c1F
< 4.05

What about this compound? O=C(Nc1cc2c(cn1)c(=O)[nH]n2-c1ccccc1)C1CC1
4.05 to 4.52

What about this compound? O=c1[nH]n(-c2ccc(OC(F)(F)F)c(F)c2)c2cc(Nc3ccc(F)cn3)ncc12
< 4.05

---

# TARGET SYSTEM: TYK2 (Homo sapiens, UniProt P29597)
# Sequence (P29597 whole entry): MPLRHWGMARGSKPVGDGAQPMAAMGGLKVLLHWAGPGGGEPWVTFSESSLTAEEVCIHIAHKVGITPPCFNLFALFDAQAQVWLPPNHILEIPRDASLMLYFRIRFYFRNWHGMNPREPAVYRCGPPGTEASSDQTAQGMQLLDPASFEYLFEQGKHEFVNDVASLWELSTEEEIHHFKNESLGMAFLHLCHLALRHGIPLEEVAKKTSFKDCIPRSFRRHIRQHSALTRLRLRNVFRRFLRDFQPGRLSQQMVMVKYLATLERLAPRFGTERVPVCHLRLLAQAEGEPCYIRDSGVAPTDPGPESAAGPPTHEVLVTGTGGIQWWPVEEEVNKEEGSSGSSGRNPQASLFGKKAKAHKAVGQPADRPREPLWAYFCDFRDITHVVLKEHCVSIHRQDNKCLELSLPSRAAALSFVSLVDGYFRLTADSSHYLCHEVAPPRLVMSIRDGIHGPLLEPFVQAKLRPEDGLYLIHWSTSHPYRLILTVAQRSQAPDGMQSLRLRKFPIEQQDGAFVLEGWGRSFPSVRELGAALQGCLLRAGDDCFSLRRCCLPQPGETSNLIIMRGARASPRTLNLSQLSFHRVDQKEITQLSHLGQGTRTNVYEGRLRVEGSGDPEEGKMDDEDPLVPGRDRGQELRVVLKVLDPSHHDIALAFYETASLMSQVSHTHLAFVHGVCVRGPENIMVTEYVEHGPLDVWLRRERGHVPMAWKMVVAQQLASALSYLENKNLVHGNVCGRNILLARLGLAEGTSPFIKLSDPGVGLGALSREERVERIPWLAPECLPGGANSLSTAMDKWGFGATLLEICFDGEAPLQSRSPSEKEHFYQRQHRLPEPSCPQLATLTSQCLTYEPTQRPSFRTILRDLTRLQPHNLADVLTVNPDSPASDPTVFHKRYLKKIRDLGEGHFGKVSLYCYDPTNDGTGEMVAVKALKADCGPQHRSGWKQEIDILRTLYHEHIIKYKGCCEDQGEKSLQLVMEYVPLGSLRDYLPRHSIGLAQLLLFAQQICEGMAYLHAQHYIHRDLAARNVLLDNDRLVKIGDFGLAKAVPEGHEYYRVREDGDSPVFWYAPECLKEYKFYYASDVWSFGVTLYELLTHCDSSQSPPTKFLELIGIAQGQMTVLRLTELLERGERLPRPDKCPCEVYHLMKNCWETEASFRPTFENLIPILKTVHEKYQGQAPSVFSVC
# METHOD SUMMARY: HEK-Blue IL-23 reporter assay (SEAP) for TYK2 pseudokinase inhibition
# Format: cell-based
# Parameters: HEK-Blue™ IL-23 and IFNα/β cells with a stably-integrated cytokine receptor and STAT3 or STAT1; host or cells: HEK-Blue IL-23 / HEK-Blue IFNα/β cells (HEK293 background)
# MEASUREMENT CONDITIONS: HEK-Blue IL-23 cells, 10 ng/mL human recombinant IL-23, SEAP reporter; read-out: IL23 IC50
pIC50: −log10 of the molar value.
pIC50 values by entry

Below: 5 molecules and their reported pIC50.
[[record]]
smiles_text = "COc1c(-n2[nH]c(=O)c3cnc(Nc4ccc(F)cn4)cc32)cccc1C(F)(F)F"
target_system = "TYK2 (Homo sapiens, UniProt P29597)"
result_value = "< 4.05"

[[record]]
smiles_text = "Cc1cc(Nc2cc3c(cn2)c(=O)[nH]n3-c2cccc(C#N)c2)nc(C)n1"
target_system = "TYK2 (Homo sapiens, UniProt P29597)"
result_value = "> 5.00"

[[record]]
smiles_text = "Cc1cc(Nc2cc3c(cn2)c(=O)[nH]n3-c2cccc(C(F)(F)F)c2)ncc1F"
target_system = "TYK2 (Homo sapiens, UniProt P29597)"
result_value = "> 5.00"

[[record]]
smiles_text = "Cc1cc(Nc2cc3c(cn2)c(=O)[nH]n3-c2ccc(C#N)c(C(F)(F)F)c2)nc(C)n1"
target_system = "TYK2 (Homo sapiens, UniProt P29597)"
result_value = "> 5.00"

[[record]]
smiles_text = "COC(=O)c1ccc(-n2[nH]c(=O)c3cnc(Nc4ccc(F)cn4)cc32)cc1"
target_system = "TYK2 (Homo sapiens, UniProt P29597)"
result_value = "> 5.00"


State the recorded pIC50 for this entry: Cc1cc(Nc2cc3c(cn2)c(=O)[nH]n3-c2ccccc2)nc(C)n1
> 5.00

What about this molecule? Cc1ccccc1-n1[nH]c(=O)c2cnc(NC(=O)C3CC3)cc21
> 5.00

What about this molecule? O=C(Nc1cc2c(cn1)c(=O)[nH]n2-c1ccc(OC(F)(F)F)cc1)C1CC1
> 5.00

What about this molecule? N#Cc1ccc(-n2[nH]c(=O)c3cnc(NC(=O)C4CC4)cc32)cc1Cl
> 5.00

What about this molecule? O=c1[nH]n(-c2ccccc2F)c2cc(Nc3ccc(F)cn3)ncc12
> 5.00

What about this molecule? Cc1cc(Nc2cc3c(cn2)c(=O)[nH]n3-c2cccc(OC(F)(F)F)c2)nc(C)n1
> 5.00

What about this molecule? O=c1[nH]n(-c2ccc(OC(F)(F)F)cc2)c2cc(Nc3ccc(F)cn3)ncc12
> 5.00

What about this molecule? Cc1cc(Nc2cc3c(cn2)c(=O)[nH]n3-c2cccc(C(F)(F)F)c2)nc(C)n1
> 5.00

What about this molecule? COc1cccc(-n2[nH]c(=O)c3cnc(Nc4cc(C(F)(F)F)ccn4)cc32)c1
< 4.05
